- Target Desc: UniProt B7TVH4
- Method Notes: Fluorescence competitive ligand binding assay with 1-NPN probe
- Assay Setup: Ki, pH 7.4, calculated from IC50
Could you please report measured Ki for the items listed next?
Give the quantity in µM, number only.

q: Give Ki for the following molecule: CC1=CC=C(C(C)C)CC1
a: 13.8

q: Give Ki for the following molecule: CC1=CC[C@@H](C(C)(C)O)CC1
a: 20.1

q: Give Ki for the following molecule: CC/C=C\CCO [Cis-3-hexen-1-ol]
a: 22.9

q: Give Ki for the following molecule: CCC/C=C/C=O [Trans-2-hexenal]
a: 23.3

q: Give Ki for the following molecule: COC(=O)c1ccccc1 [Methyl benzoate]
a: 19.6

q: Give Ki for the following molecule: Cc1ccc(C(C)C)cc1
a: 16.9

###

- Target Desc: NlugCSP8 (Nilaparvata lugens, UniProt B7TVH4)
- Sequence (B7TVH4 entry or part of it): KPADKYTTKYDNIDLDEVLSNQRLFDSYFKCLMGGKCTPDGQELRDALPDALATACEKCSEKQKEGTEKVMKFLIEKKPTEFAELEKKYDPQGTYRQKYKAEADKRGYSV
- Method Notes: Titration of NlugCSP8 with 1-NPN (Scatchard plot)
- Assay type: binding
- Assay Setup: pH 5.0; read-out: dissociation constant
Readout Type: pKd
Quick note: pKd means taking -log10 of the concentration in moles per liter.

q: Give pKd for the following compound: c1ccc(Nc2cccc3ccccc23)cc1 [1-NPN, N-phenyl-1-naphthylamine]
a: 5.17

###

Could you please report measured IC50 for the items listed next?
- Target Desc: NlugCSP8 (Nilaparvata lugens)
- Method Notes: Fluorescence competitive ligand binding assay with 1-NPN probe
- Assay Setup: pH 5.0, read-out: IC50
Give the quantity in µM, number only.

q: Give IC50 for the following compound: CCCCCCCCCCCC=O
a: 32.6

q: Give IC50 for the following compound: CCC(O)CC
a: 31.4

q: Give IC50 for the following compound: CCCCCCCCCCCC(C)=O
a: 12

q: Give IC50 for the following compound: C=C(C)[C@H]1CC=C(C)CC1 [R-(+)-limonene]
a: 14.4

q: Give IC50 for the following compound: CCCCCCCCCCCCCCCC
a: 27.3

q: Give IC50 for the following compound: CCCCCCCCCCCCCCCCCCC
a: 28.3

q: Give IC50 for the following compound: CC1=CCC2C(C1)C2(C)C (single isomer, unassigned; (+)) [(+)-3-Carene]
a: 39.9

q: Give IC50 for the following compound: CCCCCCCCCCCCCCCCCCCC
a: 14

q: Give IC50 for the following compound: C=CC(O)CCCCC (centres unmarked)
a: 22.1

q: Give IC50 for the following compound: C=CC(C)(O)CCC=C(C)CCC=C(C)C (mixture of isomers)
a: 9.61

q: Give IC50 for the following compound: CCCCCC(C)O (centres unmarked)
a: 11.2

###

- Target Desc: NlugCSP8 (Nilaparvata lugens, UniProt B7TVH4)
- Method Notes: Titration of NlugCSP8 with 1-NPN (Scatchard plot)
- Assay type: binding
- Assay Setup: pH 7.4; read-out: dissociation constant
Readout Type: Kd
# output: numeric value plus its unit

q: Give Kd for the following compound: c1ccc(Nc2cccc3ccccc23)cc1
a: 4.99 µM

###

Could you please report measured IC50 for the items listed next?
- Target Desc: NlugCSP8 (Nilaparvata lugens)
- Method Notes: Fluorescence competitive ligand binding assay with 1-NPN probe
- Assay Setup: IC50, pH 5.0
Give the quantity in µM, number only.

q: Give IC50 for the following compound: CCC/C=C/C=O [Trans-2-hexenal]
a: 11.6

q: Give IC50 for the following compound: COC(=O)c1ccccc1 [Methyl benzoate]
a: 17.8

q: Give IC50 for the following compound: CC1=CC[C@](O)(C(C)C)CC1 [(–)-Terpinen-4-ol]
a: 11.4

q: Give IC50 for the following compound: Cc1ccc(C(C)C)cc1 [4-Isopropyl to luene]
a: 22.7

q: Give IC50 for the following compound: OC1CCCCC1 [Cyclohexanol]
a: 95.5

q: Give IC50 for the following compound: CC1=CC=C(C(C)C)CC1 [α-Terpinene]
a: 16.4

q: Give IC50 for the following compound: C=CC(C)(O)CCC=C(C)C (stereo not drawn) [Linalool]
a: 36.9

q: Give IC50 for the following compound: CCCCCC=O [Hexanal]
a: 11

q: Give IC50 for the following compound: CC1=CC[C@@H](C(C)(C)O)CC1 [α-Terpineol]
a: 15.5

q: Give IC50 for the following compound: CC/C=C\CCO [Cis-3-hexen-1-ol]
a: 38

q: Give IC50 for the following compound: CC1=CCC(=C(C)C)CC1 [Terpinolene]
a: 31.2

q: Give IC50 for the following compound: CCC/C=C/CO [Trans-2-hexen-1-ol]
a: 18.2
